Experiment: blood concentration in mice after subcutaneous administration
Format: in vivo
Conditions: mouse, sc, mice (5), 50 mg/kg, 10 mins
Structures can show the parent of a compound that is named as a salt.
RESULT TYPE: concentration at 10 min (µg/mL)
# output: bare number, implied unit µg/mL

Task: Tell me its concentration at 10 min given CCN1CCN(C(=O)N[C@@H](C(=O)N[C@]2(NC=O)C(=O)N3[C@@H](C(=O)O)C(C)(C)S[C@@H]32)c2ccc(O)cc2)C(=O)C1=O [Example 5, sodium salt] as the entry.
Output: 23.2

###

Test: blood concentration in mice after subcutaneous administration
Type: in vivo
Details: mouse, sc, mice (5), 50 mg/kg, 30 mins
Where a name gives a salt, the structure may show the parent alone.
RESULT TYPE: concentration at 0.5 h (ng/mL)
Number in ng/mL, nothing else.

Task: Read the entry CCN1CCN(C(=O)N[C@@H](C(=O)N[C@]2(NC=O)C(=O)N3[C@@H](C(=O)O)C(C)(C)S[C@@H]32)c2ccc(O)cc2)C(=O)C1=O [Example 5, sodium salt] and write its reported concentration at 0.5 h.
Output: 11000

###

Assay: blood concentration in mice after subcutaneous administration
Assay type: in vivo
Conditions: mouse, sc, mice (5), 50 mg/kg, 120 mins
Counter-ions that a name gives are not always drawn.
RESULT TYPE: concentration at 2 h

Task: Item CCN1CCN(C(=O)N[C@@H](C(=O)N[C@]2(NC=O)C(=O)N3[C@@H](C(=O)O)C(C)(C)S[C@@H]32)c2ccc(O)cc2)C(=O)C1=O [Example 5, sodium salt] : provide concentration at 2 h
Output: < 900 ng/mL
